# experiment: yeast vacuolar ATPase proton transport modulators – pHLuorin cytosolic pH fluorescence, primary screen (AID 504577)
# condition description: S. cerevisiae, at 10 µM
Screen size: about 350,000 compounds; about 1,300 (0.37%) were called active. Rule as the data show it: active = response mostly above about 7.3% (no sharp cut-off); inactive = mostly below about 5.4%. Many of the other results were omitted from the sample, so actives are more common in it than they were.
I would appreciate it if you answered using one of these outcomes: active, inactive

**Query** What did this assay record as the result for Fc1cccc(CSc2nnc3ccc(-c4ccncc4)nn23)c1 ?
**Result** active

**Query** # lookup: test call for CSc1ncc(C(=O)Nc2ccc(C)cc2C)c(C)n1
**Result** inactive

**Query** Each compound tested received a call. Report the one for Cc1sc2nc(COC(=O)C(NC(=O)c3ccc(Cl)cc3Cl)C(C)C)[nH]c(=O)c2c1C (stereo unspecified) .
**Result** inactive

**Query** State the result this test recorded for Cc1ccc(S(=O)(=O)N2CCN(Cc3cccc(C)c3O)CC2)cc1 .
**Result** inactive

**Query** What was the test verdict on OC1CN=C2Sc3ccccc3N2C1 (stereo unspecified) ?
**Result** inactive

**Query** Recorded test outcome, item CN(CC(=O)N1CCN(c2ccccc2)CC1)S(=O)(=O)c1cccs1
**Result** inactive

**Query** // outcome(item) with item = CC(C)(C)C(=O)COC(=O)c1cc(S(=O)(=O)N2CCCCC2)ccc1N1CCOCC1
**Result** inactive

**Query** What did this assay record as the result for COc1ccc(CC(=O)Nc2c3c(nn2-c2cccc(Cl)c2)CS(=O)C3)cc1 (stereo unspecified) ?
**Result** inactive

**Query** Recorded call for COc1cc(NC(=O)CSc2nnc3ccc(-c4ccncc4)nn23)cc(OC)c1 ?
**Result** inactive

**Query** Answer briefly: the call reported for COC(=O)C(C)n1cnc2c(nnn2-c2cccc(Cl)c2)c1=O (stereo unspecified) in this assay.
**Result** active

**Query** What outcome does the record of this test show for Cc1ccc2nc(-c3ccncc3)cc(C(=O)Nc3ccc(OC(F)F)cc3)c2c1 ?
**Result** active

**Query** Hello, I am checking results. What call was entered for Cc1c(C)c(C)c(S(=O)(=O)N2CCC3(CC2)OCCO3)c(C)c1C ?
**Result** inactive

**Query** Test call for this compound, please: Cc1ccc(C)c(NC(=O)CN(C)C(=O)COc2ccc3ccccc3c2)c1
**Result** inactive

**Query** Identify the outcome logged in this assay for the compound shown: Cc1cccc(NC(=O)C2CCCN(C(=O)NCc3ccccc3)C2)c1C (stereo unspecified)
**Result** inactive

**Query** Assay outcome for O=C1C=C(c2ccc(Cl)cc2)C(=O)N1Nc1ccccc1 : what was it?
**Result** active

**Query** Recorded call for COc1ccc(-n2ncc3c2CC(C)(C)CC3NC(=O)CCc2c(C)nn(C)c2C)cc1 (stereo unspecified) ?
**Result** inactive

---

Kindly supply the reported response values for the records listed here.
# experiment: yeast vacuolar ATPase proton transport modulators – pHLuorin cytosolic pH fluorescence, primary screen (AID 504577)
# condition description: S. cerevisiae, at 10 µM, active compounds read high
Hit rate of the full screen: of about 350,000 compounds, about 1,300 (0.37%) were called active. This is one part of a sample in which actives are shown more often than they occur.

**Query** Using the record for O=c1[nH]c2ccccc2n2c(-c3ccccc3)nnc12 , report its response.
**Result** -3.47% (inactive)

**Query** Consider the compound shown here: CC1(C)COC(c2cccn2Cc2ccccc2Cl)=N1 What is its recorded response?
**Result** -1.9% (inactive)

**Query** Request the reported response associated with COc1ccc(NS(=O)(=O)c2ccc(F)cc2F)cn1
**Result** -2.01% (inactive)

**Query** So what's the measured response for this one? CCc1ccc(CNC(=O)CCc2nc(-c3cccs3)no2)cc1
**Result** 10.8% (active)

**Query** Form field: reported response of CN(Cc1nc2ccc(F)cc2[nH]1)Cc1nc(CC2CC2)no1
**Result** -0.79% (inactive)

**Query** Which response reading was recorded for the compound Cc1cc(OC(C)C(=O)Nc2ccc(S(=O)(=O)Nc3onc(C)c3C)cc2)cc(C)c1Cl (stereo not given) ?
**Result** -1.29% (inactive)

**Query** Which response value belongs to CC1CCCCN1S(=O)(=O)c1ccc(S(=O)(=O)N(CC(=O)Nc2ccccc2)Cc2cccs2)cc1 (stereo not given) ?
**Result** 2.49% (inactive)

**Query** Returns the measured response for the input compound. Input: O=C1CC(c2ccccc2)C(=O)N1c1cccc(O)c1 (stereo not given)
**Result** -0.89% (inactive)

**Query** Look up response: Cn1c(=O)c(=O)n(C)c2cc(S(=O)(=O)CCC(=O)N3CCCCC3)ccc21
**Result** 0.96% (inactive)

**Query** Any idea what its response is? The compound is CC1CCCCN1S(=O)(=O)c1ccc(C(=O)Nc2nnc(-c3cccs3)o2)cc1 (stereo not given)
**Result** 11.2% (active)

**Query** Query (compound): CCc1ccc(CN(C)Cc2nc(Cc3ccccc3)no2)nc1 ; field requested: response
**Result** 0.41% (inactive)

**Query** Endpoint output: response of Cc1nc2ccccc2c(=O)n1-c1ccc(F)c(NC(=O)c2cccs2)c1 . Value?
**Result** -7.41% (inactive)

**Query** Would you kindly share the measured response for Cc1cc(=O)[nH]c(N/N=C/c2c(C)nn(-c3ccccc3Cl)c2Cl)n1 ?
**Result** 8.62% (active)

**Query** Requested field: response. Item: Cc1c(NC(=O)c2cc(-c3ccc(Cl)s3)nc3ccccc23)c(=O)n(-c2ccccc2)n1C
**Result** 7.08% (inactive)

**Query** Query: response; subject: O=C(CSc1nc2ccccc2c(=O)n1CCCO)N1CCc2ccccc21
**Result** 1.92% (inactive)

**Query** Reported response for Cc1ccccc1NC(=O)N1CCCC1C(=O)NCc1ccccc1 (stereo not given) : what is it?
**Result** -1.65% (inactive)

**Query** Endpoint output: response of COc1ccc(NC(=O)CSc2ncnc3[nH]ncc23)cc1 . Value?
**Result** 8.67% (inactive)

**Query** May I ask what response has been recorded for CCCC[C@@H]1CN=C(N)N1CCc1cc(C(F)(F)F)cc(C(F)(F)F)c1 ?
**Result** 14.3% (active)

**Query** Need response of CCOc1ccc(-n2c(SCC(=O)Nc3cc(C(=O)O)ccc3Cl)nc3ccccc3c2=O)cc1 , thanks.
**Result** 2.47% (inactive)

**Query** So what's the measured response for this one? Cc1ccc(O)c(/C=N/NC(=O)COc2ccc3c(C)cc(=O)oc3c2)c1
**Result** -1.28% (inactive)

**Query** May I ask what response has been recorded for c1ccc(CNc2ncnc3[nH]ncc23)cc1 ?
**Result** -0.7% (inactive)

**Query** Record request: response value, item CCCC[C@@H]1CN=C(N)N1CCCC
**Result** -0.58% (inactive)

**Query** Which response value is on record for CN(c1ccccn1)c1ncnc2[nH]ncc12 ?
**Result** 15.2% (active)

**Query** response for COc1ccc(OC)c(CNC(=O)CCc2nc(-c3cccs3)no2)c1 ?
**Result** -0.51% (inactive)

**Query** # query: response of entry COc1ccc(S(=O)(=O)N2CCOC23CCN(S(=O)(=O)c2ccc([N+](=O)[O-])cc2)CC3)cc1
**Result** 1.58% (inactive)

---

# experiment: yeast vacuolar ATPase proton transport modulators – pHLuorin cytosolic pH fluorescence, primary screen (AID 504577)
# condition description: S. cerevisiae, at 10 µM, active compounds read high
Hit rate of the full screen: of about 350,000 compounds, about 1,300 (0.37%) were called active. The sample as a whole holds a higher share of actives than the screen did.
observable: response (%)
Return type: number; implicit unit %.

**Query** response lookup needed for CCC(C)[C@H](NC(=O)N1CCn2c1nc1ccccc12)C(=O)NCc1ccc(OC)cc1 (stereo not given in full) , thanks.
**Result** 4.62

**Query** So what does the record say about response for CCn1c(COc2ccccc2)nnc1SCC(=O)Nc1ccc2c(c1)OCCO2 ?
**Result** -3.48

**Query** Look at this molecule and give its reported response. Cc1cc(C(=O)Nc2nnc(C3CC3)s2)c(C)s1
**Result** 3.66

**Query** So what's the measured response for this one? C[n+]1ccc(C(=O)NCc2ccccc2)cc1
**Result** 4.19

**Query** Which response value belongs to Nc1c(-c2ccccc2)nnn1Cc1ccccc1 ?
**Result** -5.08
